targetUnderTest: WRN [UniPro: Q14191 (WRN_HUMAN), N500-C946] (Homo sapiens (Human), UniProt Q14191)
Sequence (Q14191 500-946): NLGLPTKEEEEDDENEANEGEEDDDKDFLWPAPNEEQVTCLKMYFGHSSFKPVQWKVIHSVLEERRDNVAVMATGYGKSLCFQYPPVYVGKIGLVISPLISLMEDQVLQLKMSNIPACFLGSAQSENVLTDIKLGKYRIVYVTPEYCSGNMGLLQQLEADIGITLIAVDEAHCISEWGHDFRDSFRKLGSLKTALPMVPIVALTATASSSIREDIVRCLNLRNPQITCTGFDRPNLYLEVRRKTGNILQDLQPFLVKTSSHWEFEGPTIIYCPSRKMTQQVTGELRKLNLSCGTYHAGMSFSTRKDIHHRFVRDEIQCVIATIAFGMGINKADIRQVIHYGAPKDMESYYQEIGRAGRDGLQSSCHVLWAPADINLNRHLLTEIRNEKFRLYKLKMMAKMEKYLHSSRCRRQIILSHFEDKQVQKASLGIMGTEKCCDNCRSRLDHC
assayNotes: WRN unwinding assay (FORKF DNA, fluorescence)
Assay type: biochemical
measurementContext: Table 14
pIC50: −log10 of the molar value.
Entries annotated with measured pIC50

CCc1c(N2CCN(C(=O)CNC(=O)c3cnn(C)c3)CC2)c(=O)n2nc(C3=CCOCC3)nc2n1CC(=O)Nc1ccc(C(F)(F)F)cc1Cl [Example 103]
> 7.00
CCc1c(N2CCN(C(=O)c3sc4cnccc4c3N)CC2)c(=O)n2nc(C3=CCOCC3)nc2n1CC(=O)Nc1ccc(C(F)(F)F)cc1Cl [Example 6]
> 7.00

For record CCc1c(N2CCN(c3nnc(C(F)F)s3)CC2)c(=O)n2nc(C3=CCOCC3)nc2n1CC(=O)Nc1ccc(C(F)(F)F)cc1Cl [Example 8] the listed pIC50 is < 6.00

GET /value?item= CCc1c(N2CCN(C(=O)Nc3[nH]cnc3C(F)(F)F)CC2)c(=O)n2nc(C3=CCOCC3)nc2n1CC(=O)Nc1ccc(C(F)(F)F)cc1Cl [Example 30] &field=pIC50 returns > 7.00
